Tested on: HCI-016 (organoid from a triple-negative breast cancer xenograft)
assayProtocol: CTG-3D luminescence at 96 h relative to day-0 seeding control (ratio to day 0); higher = more growth / less cytotoxicity; PDxO 3D drug screen, 96 h, CTG-3D normalised to day-0 seeding control.
measurementSetup: 625 fM; days in culture: 172
recordedMetric: CTG-3D luminescence at 96 h

Cc1cc(Nc2ncnc3ccc(NC4=NC(C)(C)CO4)cc23)ccc1Oc1ccn2ncnc2c1 = 1.3
C[C@H](NC(=O)CCC(F)(F)F)C(=O)N[C@@H]1C(=O)N(CCO)c2ncccc2-c2ccccc21 = 1.73
CNC(=O)c1cccc(-c2ccc3c(N4CCOC[C@@H]4C)nc(N4CCOC[C@@H]4C)nc3n2)c1 = 1.42

###

Entries and their CTG-3D luminescence at 96 h
System: HCI-010 (organoid from a breast cancer xenograft)
assayProtocol: CTG-3D luminescence at 96 h relative to day-0 seeding control (ratio to day 0); higher = more growth / less cytotoxicity; PDxO 3D drug screen (set 2), 96 h, CTG-3D normalised to day-0 seeding control.
measurementSetup: 100 µM; days in culture: 102
recordedMetric: CTG-3D luminescence at 96 h

COc1cccc2c1C(=O)c1c(O)c3c(c(O)c1C2=O)C[C@@](O)(C(=O)CO)C[C@@H]3O[C@H]1C[C@H](N)[C@@H](O)[C@H](C)O1 [epirubicin] = -0.000814
CC(=O)O[C@@]12CO[C@@H]1C[C@H](O)[C@@]1(C)C(=O)[C@H](O)C3=C(C)[C@@H](OC(=O)[C@H](O)[C@@H](NC(=O)OC(C)(C)C)c4ccccc4)C[C@@](O)([C@@H](OC(=O)c4ccccc4)[C@H]21)C3(C)C = 0.00091
O=C(c1cc(Cc2n[nH]c(=O)c3ccccc23)ccc1F)N1CCN(C(=O)C2CC2)CC1 = 0.0517
Cc1c(CN2CCN(C(=O)[C@H](C)O)CC2)sc2c(N3CCOCC3)nc(-c3cnc(N)nc3)nc12 = 0.0044

###

Entries and their CTG-3D luminescence at 96 h
System: HCI-008 (organoid from a HER2-enriched breast cancer xenograft)
assayProtocol: CTG-3D luminescence at 96 h relative to day-0 seeding control (ratio to day 0); higher = more growth / less cytotoxicity; PDxO 3D drug screen (set 2), 96 h, CTG-3D normalised to day-0 seeding control.
measurementSetup: 10 µM; days in culture: 354
recordedMetric: CTG-3D luminescence at 96 h

CCOc1ccn(-c2ccc(F)cc2)c(=O)c1C(=O)Nc1ccc(Oc2ccnc(N)c2Cl)c(F)c1 = 0.917
CC(=O)c1c(C)c2cnc(Nc3ccc(N4CCNCC4)cn3)nc2n(C2CCCC2)c1=O = 0.979
CC(=O)O[C@@]12CO[C@@H]1C[C@H](O)[C@@]1(C)C(=O)[C@H](O)C3=C(C)[C@@H](OC(=O)[C@H](O)[C@@H](NC(=O)OC(C)(C)C)c4ccccc4)C[C@@](O)([C@@H](OC(=O)c4ccccc4)[C@H]21)C3(C)C = 1.23
CO[C@H]1C[C@@H]2CC[C@@H](C)[C@@](O)(O2)C(=O)C(=O)N2CCCC[C@H]2C(=O)O[C@H]([C@H](C)C[C@@H]2CC[C@@H](OCCO)[C@H](OC)C2)CC(=O)[C@H](C)/C=C(\C)[C@@H](O)[C@@H](OC)C(=O)[C@H](C)C[C@H](C)/C=C/C=C/C=C/1C = 0.697
